system: UACC-62; assay: NCI tumour cell line growth inhibition, 48 h
Activity calls are given as the source filed them. No stated cut-off is given here; in the data, active = GI50 up to about 1.1 µM and inactive = higher.
Recorded measurements of GI50, one per entry
OUTCOME MEASURE: GI50

> print(dat)
                                    molecule          test.result
 1  Cc1cn(C2CC(O)C(COP(=O)(O)OC3CC(n4c[n+]([BH2-]C#N)c5c(=O)[nH]c(N)nc54)OC3CO)O2)c(=O)[nH]c1=O (stereo not given)  > 100 µM (inactive)
 2        COc1ccc(/C=C/CN(C)CCc2ccccc2)cc1OC  > 100 µM (inactive)
 3  CC(=O)c1ccc(Br)cc1NC1=CC(=O)c2ncccc2C1=O   2.58 µM (inactive)
 4  CCOC(OC(C)=O)[C@@H]1C=C[C@H](C)N(c2ccc([N+](=O)[O-])cc2)O1 (stereo not given in full)   2.54 µM (inactive)
 5  COc1ccc2c(c1)C1Oc3ccccc3CC1CO2 (stereo not given)   98.2 µM (inactive)
 6           CCc1cccc(C)c1NS(=O)(=O)c1ccccc1  > 100 µM (inactive)
 7  [N-]=[N+]=Nc1ccc2c(c1)Sc1ccccc1N2CCCCN1CCN(C(=O)CCNC(=O)Cc2ccc(C(=O)c3ccccc3)cc2)CC1   6.05 µM (inactive)
 8  O=C1c2ccccc2CCC1C(O)(C(F)(F)F)C(F)(F)F (stereo not given)  > 100 µM (inactive)
 9              N#Cc1nc(Nc2cccc3ccccc23)sc1N   21.2 µM (inactive)
10  O=c1c(O)c(-c2ccc(O)c(O)c2)oc2cc(O)cc(O)c12   31.2 µM (inactive)
11  O=C(CC(=O)N1N=C(N2c3ccccc3Sc3ccccc32)CC1c1ccccc1)Nc1ccccc1Cl (stereo not given)  > 100 µM (inactive)
12  COC(=O)/C(=N\NC(=S)NN)C(C(=O)OC)C(=O)C(=O)Nc1cccc(C(F)(F)F)c1 (stereo not given)  > 100 µM (inactive)
13  COc1ccc(C(OCC2OC(n3ccc(NC(=O)c4ccccc4)nc3=O)C(O)C2O)(c2ccccc2)c2ccccc2)cc1 (stereo not given)   8.26 µM (inactive)
14  N=C(/C=C/c1ccc(-c2cn3cc(/C=C/C(=N)N4CCOCC4)ccc3n2)cc1)N1CCOCC1  > 100 µM (inactive)
15  CCCCCCCCCCCCCCCCOP(=O)(O)Oc1ccc(/C=C\c2ccc(OP(=O)(O)OCCCCCCCCCCCCCCCC)cc2)cc1  > 100 µM (inactive)
16  C1=CC=C2NCCCCCC/N=C3\C=CC=CC=C3NCCc3cccc(c3)CC/N=C/2C=C1   21.7 µM (inactive)
17  C[C@]12CC[C@H]3[C@@H](CCC4=CC(=O)CC[C@@]43C)[C@]1(O)CC[C@]2(O)C(=O)CO  > 100 µM (inactive)
18  COC1(OC)N=C(N)C2(C#N)C(C)CC(=O)N(N(C)C)C12C#N (stereo not given)  > 100 µM (inactive)
19  COc1ccc(Nc2ccc3ccccc3c2-c2c(O)ccc3ccccc23)cc1   29.9 µM (inactive)
20   CC(=O)OC1=C(c2ccccc2)S(=O)(=O)c2ccccc21  > 100 µM (inactive)

###

system: EKVX; assay: NCI tumour cell line growth inhibition, 48 h
Active and inactive are the calls of the source. Cut-off read from the data, not from the text of the source: active = GI50 up to about 1.1 µM and inactive = higher.
OUTCOME MEASURE: GI50

> print(dat)
                                    molecule          test.result
 1  [N-]=[N+]=CC(=O)CCC(=O)N(c1ccccc1)c1ccccc1   > 10 µM (inactive)
 2  O=C1/C(=C/c2ccccc2)N=C(c2ccccc2)N1n1c(-c2ccccc2)nc2ccccc2c1=O   48.6 µM (inactive)
 3  C/C(Cl)=N/OC(=O)Nc1ccc(S(N)(=O)=O)c(C)c1   5.75 µM (inactive)
 4    CCSc1nc(N)c2c(-c3ccccc3)c3c(nc2n1)CCC3  > 100 µM (inactive)
 5                 COc1ccc(C#CC(=O)O)c(OC)c1  > 100 µM (inactive)
 6  [N-]=[N+]=Nc1c(Cc2ccccc2)c(Cl)nc2ccccc12   27.2 µM (inactive)
 7  COc1cc(/C=C2\NC(=S)C3Cc4c(OC)c(C)c(OC)c(OC)c4C2N3C)c(OC)c(C)c1OC (stereo not drawn)   36.8 µM (inactive)
 8  CC(=O)O[C@H]1CCC2[C@@H]3CC[C@]4(C)CC(=O)C=C[C@]4(C)C3CC[C@@]21C (stereo partly drawn)   27.5 µM (inactive)
 9  CCOC(=O)C1=CN/C(=C(/C)C(=O)OC)SC1C(=O)OCC (stereo not drawn)  > 100 µM (inactive)
10  CC(C)(C)OC(=O)NCCCCC(NC(=O)c1ccccc1)C(N)=O (stereo not drawn)  > 100 µM (inactive)
11  COc1nc(-c2cn(S(=O)(=O)c3ccc(C)cc3)c3ccc(Br)cc23)cc(C(F)(F)F)c1C#N     40 µM (inactive)
12          CN(C)CN(C)c1nc(N(C)C)nc(N(C)C)n1  > 100 µM (inactive)
13           CCc1cccc(C)c1NS(=O)(=O)c1ccccc1  > 100 µM (inactive)
14            Cc1ccc(/C=N/Nc2nncc3ccccc23)s1  > 100 µM (inactive)
15  COc1cc2oc(-c3ccc4c(c3)OCO4)c(OC)c(=O)c2c(OC)c1OC   66.5 µM (inactive)
16  CCCCCCCCCCCCP(=O)(O)OCC(N)C(=O)O (stereo not drawn)   93.3 µM (inactive)
17    CC(=O)/N=C1\C=C(NC(C)=O)C(=O)c2ccccc21   5.19 µM (inactive)
18  Cc1ccc(SC2C(C)(C)N(C(C)C)P2(=O)N(C(C)C)C(C)C)cc1 (stereo not drawn)   26.4 µM (inactive)
19  CCOC(=O)C1Cc2[nH]c3ccccc3c2C(C)C1C (stereo not drawn)   10.8 µM (inactive)
20    Cc1cccc2c3ccc4c(c3n(C)c12)C(=O)C=CC4=O  > 100 µM (inactive)
21                    CC1(C)SCc2nc3ccccc3n21  > 100 µM (inactive)
22      OC(c1ccccc1)(c1ccccc1)c1nccc2ccccc12   20.7 µM (inactive)
23           CC(=O)/C=C/c1c[nH]c(=O)[nH]c1=O    239 µM (inactive)

###

system: SF-295; test: NCI tumour cell line growth inhibition, 48 h
Calls of active or inactive are those of the source. Rule as the data show it: active = GI50 up to about 1.1 µM and inactive = higher.
Labels: 1 for active, 0 for inactive

COMPOUND	CATEGORY
O=C(O)CCCc1ccc(N(CCCl)CCCl)cc1 [CHLORAMBUCIL]	0
Cc1ccc(CS(=O)(=O)C/N=C2\Sc3ccccc3N\C2=C/C(=O)c2ccc(Cl)cc2)cc1	0
NCCN1C(=O)C2C3c4ccccc4C(c4ccccc43)C2C1=O (stereo not given)	0
COc1ccc(/C(Cl)=C(/c2ccc(O)cc2)c2ccc(OCCN(C)C)cc2)cc1	0
CCN(CC)C(=S)SS(=O)(=O)c1ccccc1C(=O)O	0
Cc1cc(NS(=O)(=O)c2ccc(Nc3c4ccccc4nc4c(C(=O)N5CCN(CCO)CC5)cccc34)cc2)no1	0
COc1ccc2c(c1)CCN1C3=C(CCC3)C(=O)C[C@@H]21	0
COc1cc2c[n+](C)c3c4cc(OC)c(OC)cc4c(OCc4ccccc4)cc3c2cc1OC	0
[N-]=[N+]=Nc1c(Cc2ccccc2)c(Cl)nc2ccccc12	0
CC(=O)NC(Cc1ccsc1)C(=O)O (stereo not given)	0
C=C(C)[C@@H]1CCc2c(c(C)cc(O)c(=O)c2O)C1	0
CC1C(c2ccccc2)=CCON1c1ccccc1 (stereo not given)	0
CNC(=O)CN(CC(N)=O)C(=O)NC	0
C(=N\c1nc2cc3sc(/N=C/c4ccccc4)nc3cc2s1)/c1ccccc1	0
N#C/C=C\c1ccc(-c2cc(C(F)(F)F)cc(C(F)(F)F)c2)o1	0
C=CCOCCCC(=O)C(=[N+]=[N-])C(=O)OC	0
O=C1CC23CCCCCCCCCCC2(C1)CC(=O)C3 (stereo not given)	0
CCOC(C[C@H](O)[C@H]1COC(=S)S1)OCC	0
COc1ccc(N2C(=O)C3c4[nH]c5ccccc5c4C4CCCCC4C3C2=O)cc1 (stereo not given)	0
COC1C=C(Nc2cccc(Cl)c2)C(=O)C1 (stereo not given)	0
COC1C(O)C(C)OC(O[C@H]2CC[C@@]3(C)C(CC[C@@H]4[C@@H]3CC[C@]3(C)[C@@H](C(C)OC5OC(CO)C(O)C(O)C5O)CC[C@]43O)C2)C1O (stereo not given in full)	0
CSC1=NC=CCN1C	0
O=C1CCC2CCc3cccc4oc1c2c34 (stereo not given)	0
S=C(Nc1ccc2c(c1)oc1ccccc12)c1cccs1	0
COc1cc(=O)oc(/C=C/CO)c1C	0
N=C(N)NS(=O)(=O)c1ccc(Nc2c3ccccc3nc3c(C(=O)N4CCN(CCO)CC4)ccc(Cl)c23)cc1	0
O=C(O)CN1C(=O)CN=C(c2ccccn2)c2cc(Cl)ccc21	0
CC(=O)ON(C(C)=O)C1C(COC(c2ccccc2)(c2ccccc2)c2ccccc2)OC2OC3(CCCC3)OC21 (stereo not given)	0
CCOC(=O)c1nnsc1N/N=C\c1ccc([N+](=O)[O-])cc1	0
COC(C)C(O)(C(=O)OCC1=CCN2CCC(O)C12)C(C)(C)O (stereo not given)	0
CCN(CC)CCC(=O)/C=C/c1ccc(C)cc1	0
CC(=O)/N=S(/NC(=O)c1ccc(C)cc1)C(Cl)(Cl)Cl (stereo not given)	0
COC(=O)C1=C(C(=O)OC)SC(=C2c3ccsc3-c3sccc32)S1	0
CCOC(=O)c1cccc(/N=N/Nc2cccc(C(=O)OCC)c2)c1	0
CCOC(=O)c1nc2ccccc2nc1NCc1ccc(OC)c(OC)c1	0
CCCN(CCC)C(=S)Sc1nc(C)nc(N2CCN(c3nc(C)nc(SC(=S)N(CCC)CCC)c3[N+](=O)[O-])CC2)c1[N+](=O)[O-]	0
CN(C)CCCNC(=O)c1cc(NC(=O)CCCn2c3ccccc3c3ccccc32)cn1C	0
N#CC1=C(N)C(C#N)(C#N)C(c2ccc(F)cc2)C=C1C1CC1 (stereo not given)	0
CC(=O)CC(=O)Nc1ccccc1[N+](=O)[O-]	0
CCN1/C(=C/c2ccc3ccccc3[n+]2CC)C=Cc2ccccc21	1
CS(=O)(=O)OCCCCOS(=O)(=O)CF	0
Cc1ccc(NC(=O)C(=O)Cc2nc3ccccc3o2)c(C)c1	0
Nc1nc(O)nc2snnc12	0
COCCCNc1c2ccccc2nc2ccccc12	0
COc1cc(C(C#N)NNc2nc(C)cc(O)n2)cc(OC)c1OC (stereo not given)	0

Data provenance is ChEMBL document CHEMBL1201862.
